Here's a roundup of pIC50 values tested on USP14 (Homo sapiens (Human)), taken from various published works.
Sequence (P54578 whole entry, looked up): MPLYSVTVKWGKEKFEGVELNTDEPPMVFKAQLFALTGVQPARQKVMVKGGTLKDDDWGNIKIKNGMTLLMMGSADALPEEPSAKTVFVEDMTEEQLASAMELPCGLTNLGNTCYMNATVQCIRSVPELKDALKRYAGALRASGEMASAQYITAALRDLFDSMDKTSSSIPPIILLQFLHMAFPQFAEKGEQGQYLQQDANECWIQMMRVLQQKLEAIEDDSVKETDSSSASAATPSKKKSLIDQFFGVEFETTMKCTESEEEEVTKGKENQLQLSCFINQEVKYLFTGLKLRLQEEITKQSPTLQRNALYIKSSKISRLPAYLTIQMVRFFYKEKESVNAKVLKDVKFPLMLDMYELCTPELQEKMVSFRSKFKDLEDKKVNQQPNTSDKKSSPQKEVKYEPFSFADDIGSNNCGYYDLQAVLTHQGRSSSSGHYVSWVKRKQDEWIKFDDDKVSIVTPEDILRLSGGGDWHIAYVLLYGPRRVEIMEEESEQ
pIC50: −log10 of the molar value.

Reference set, count: 5
Cc1cc2c(nc1C)c(C(=O)CN1CCCCC1)c(C)n2-c1ccc(C#N)cc1: > 6.30
Cc1c(C(=O)CN2CCC(O)CC2)c2ccccc2n1-c1ccncc1: < 5.30
Cc1c(C(=O)CN2CCC(CNCC(=O)O)CC2)c2ncc(Br)cc2n1-c1ccc(Cl)cc1: < 5.30
Cc1c(C(=O)CN2CCCCC2)c2ncccc2n1-c1ccc(C#N)cc1: > 6.30
Cc1cc(C(=O)CN2CCCCC2)c(C)n1-c1ccc(Br)c(Cl)c1: 5.30 to 6.30

Task item: Given the entry `CCCC(=O)CCc1cnc2c(C(=O)CN3CCCCC3)c(C)n(-c3ccc(Cl)cc3)c2c1` , report its measured pIC50.
Reply: > 6.30

Task item: What pIC50 value was documented for this compound, `Cc1c(C(=O)CN2CCCCC2)c2ccc(CC(=O)O)cc2n1-c1ccc(C#N)cc1` ?
Reply: > 6.30

Task item: I'd like to know its pIC50. The compound in question is `Cc1c(C(=O)CN2CCCCC2)c2ccc(O)cc2n1-c1ccc(Cl)cc1`
Reply: 5.30 to 6.30

Task item: Name the recorded pIC50 for `Cc1oc(-c2ccc(Cl)cc2)nc1C(=O)CN1CCCCC1` .
Reply: < 5.00

Task item: Return reported pIC50; argument: `Cc1cc(C(=O)CN2CCCC2)c(C)n1-c1cc(Cl)cc(Cl)c1`
Reply: < 5.30
